Hey, just so you know, these numbers are from patent US6693123B2.

tested_target: Rat brain protein farnesyltransferase (Rattus norvegicus, UniProt Q02293+Q04631)
Construct: The enzyme is purified according to Reiss, Y., et al., Cell, 62: 81-88 (1990), utilizing steps one through three; from tissue; host or cells: rat brain
protocol_details: In vitro inhibition of protein farnesyltransferase, Amersham scintillation proximity assay with biotin-K Ras B fragment
Type: biochemical
condition_notes: Inhibition of farnesyltransferase; compound at 1 × 10^−6 M (Table 2); read-out: % inhibition at 1 × 10^−6 M
Counter-ions that a name gives are not always drawn.
quantity: inhibition at 1 µM (%)

Record excerpt, results attached:
COC(=O)[C@H](CCSC)NC(=O)c1ccc(COc2cccnc2)cc1-c1ccccc1C [Example 307] :: 82
CSCC[C@H](NC(=O)c1ccc(CNCc2c[nH]cn2)cc1-c1ccccc1)C(=O)O [Example 225] :: 93

(1) CSCC[C@H](NC(=O)c1cc(Cc2ccccc2)c(COc2cccnc2)cc1-c1ccccc1C)C(=O)O [Example 344]
(2) CNC(=O)[C@H](CCSC)NC(=O)c1ccc(NCc2cccnc2)cc1-c1ccccc1 [Example 197]
Q: Response body: label of entry with the larger inhibition at 1 µM; valid values 1 , 2 . Mark your selection by writing its label.
Result: 1

(A) CSCC[C@H](NC(=O)c1ccc(NCc2cccnc2)cc1-c1ccccc1)C(=O)OCCC(C)C [Example 193]
(B) CS(=O)(=O)CC[C@H](NC(=O)c1ccc(C(O)C(O)c2cccnc2)cc1-c1ccccc1)C(=O)O (mixture of isomers) [Example 221]
(C) COC(=O)[C@H](CCSC)NC(=O)c1ccc(CNc2cccnc2)cc1-c1ccccc1 [Example 226, Hydrochloride]
Q: Order the 3 compounds from highest to lowest inhibition at 1 µM. The reply should contain the labels ordered as requested.
Result: B, C, A
(B: 55%, C: 23%, A: 4%)

----------
tested_target: Rat brain protein farnesyltransferase (Rattus norvegicus, UniProt Q02293+Q04631)
Construct: The enzyme is purified according to Reiss, Y., et al., Cell, 62: 81-88 (1990), utilizing steps one through three; from tissue; host or cells: rat brain
protocol_details: In vitro inhibition of protein farnesyltransferase, Amersham scintillation proximity assay with biotin-K Ras B fragment
Format: biochemical
condition_notes: Inhibition of farnesyltransferase; compound at 1 × 10^−6 M (Table 2); read-out: % inhibition at 1 × 10^−6 M
Counter-ions that a name gives are not always drawn.
quantity: inhibition at 1 µM (%)

Record excerpt, results attached:
CSCC[C@H](NC(=O)c1ccc(C#Cc2cccnc2)cc1-c1ccccc1)C(=O)O [Example 218, Hydrochloride] :: 89
CSCC[C@H](NC(=O)c1ccc(CCc2cccnc2)cc1-c1ccccc1)C(=O)O [Example 213, Sodium Salt] :: 98
CSCC[C@H](NC(=O)c1ccc(/C=C/c2cccnc2)cc1-c1ccccc1C)C(=O)NC(=O)c1ccccc1 :: 35
CSCC[C@H](NC(=O)c1ccc(COc2cccnc2)cc1-c1ccccc1)C(=O)O :: 95
CSCC[C@H](NC(=O)c1ccc(/C=C/c2cccnc2)cc1-c1ccccc1C)C(N)=O :: 35
COC(=O)[C@H](CCS(C)(=O)=O)NC(=O)c1ccc(CNc2cccnc2)cc1-c1ccccc1 (stereo in doubt) :: 22
CSCC[C@H](NC(=O)c1ccc(CS(=O)(=O)c2cccnc2)cc1-c1ccccc1)C(=O)O :: 65
CSCC[C@H](NC(=O)c1ccc(COc2cccnc2)cc1-c1ccccc1)C(=O)NS(C)(=O)=O :: 96
CC1(C)O[C@H](c2cccnc2)[C@@H](c2ccc(C(=O)N[C@@H](CCS(C)(=O)=O)C(=O)O)c(-c3ccccc3)c2)O1 :: 41

(1) COCC[C@H](NC(=O)c1ccc(COc2cccnc2)cc1-c1ccccc1)C(=O)O
(2) COC(=O)[C@H](CCSC)NC(=O)c1ccc(COc2cccnc2)cc1-c1ccccc1
Q: Response body: label of entry with the larger inhibition at 1 µM; valid values 1 , 2 . Mark your selection by writing its label.
Result: 1
(1: 50%, 2: 4%)
